# TESTED ON: T1, MMAC1.388-403: biotin-ENEPFDEDQHTQITKV-COOH (SMILES …)
# T1 construct: also called MMAC1 C-terminal PDZ peptide
# T1 peptide: Biotin-ENEPFDEDQHTQITKV-OH
# ASSAY NOTES: ELISA, GST-PDZ domain on plate, biotin-peptide/streptavidin-alkaline phosphatase complex in solution
*: point of attachment. Biotin = O=C1N[C@H]2[C@H](CS[C@H]2CCCCC(=O)*)N1
ASSAY METRIC: A405 (A405)
Entry rule: numbers only, all in A405.

These solved cases illustrate the format of a correct answer.
GST fusion of MMSC2 PDZ domain 11 (P2) (other, GST placed N-terminal as in pGEX vectors; also called PDZ domain number 11; not shown: glutathione S-transferase (GST) encoded by pGEX vectors (Pharmacia)) LTIELQKKPGKGLGLSIVGKRNDTGVFVSDIVKGGIADADGRLMQGDQILMVNGEDVRNATQEAVAALLKCSLGTVTLEVGR
0.012
GST fusion of MMSC2 PDZ domain 10 (P1) (other, GST placed N-terminal as in pGEX vectors; also called PDZ domain number 10; not shown: glutathione S-transferase (GST) encoded by pGEX vectors (Pharmacia)) TTIEISKGRTGLGLSIVGGSDTLLGAIIIHEVYEEGAACKDGRLWAGDQILEVNGIDLRKATHDEAINVLRQTPQRVRLTLYR
0.174
GST fusion of MMSC2 PDZ domain 12 (P3) (other, GST placed N-terminal as in pGEX vectors; also called PDZ domain number 12; not shown: glutathione S-transferase (GST) encoded by pGEX vectors (Pharmacia)) RTVEMKKGPTDSLGISIAGGVGSPLGDVPIFIAMMHPTGVAAQTQKLRVGDRIVTICGTSTEGMTHTQAVNLLKNASGSIEMQVVA
0.003
GST fusion of MMSC2 PDZ domain 3 (P13) (other, GST placed N-terminal as in pGEX vectors; also called PDZ domain number 3; not shown: glutathione S-transferase (GST) encoded by pGEX vectors (Pharmacia)) FDVELTKNVQGLGITIAGYIGDKKLEPSGIFVKSITKSSAVEHDGRIQIGDQIIAVDGTNLQGFTNQQAVEVLRHTGQTVLLTLMR
0.006
GST fusion of MMSC2 PDZ domain 7 (P9) (other, GST placed N-terminal as in pGEX vectors; also called PDZ domain number 7; not shown: glutathione S-transferase (GST) encoded by pGEX vectors (Pharmacia)) RRVELWREPSKSLGISIVGGRGMGSRLSNGEVMRGIFIKHVLEDSPAGKNGTLKPGDRIVEVDGMDLRDASHEQAVEAIRKAGNPVVFMVQS
0.667

Input: GET /values?readout=A405&item= GST fusion of MMSC2 PDZ domain 9 (P7) (other, GST placed N-terminal as in pGEX vectors; also called PDZ domain number 9; not shown: glutathione S-transferase (GST) encoded by pGEX vectors (Pharmacia)) AVDLSSFKNVQHLELPKDQGGLGIAISEEDTLSGVIIKSLTEHGVAATDGRLKVGDQILAVDDEIVVGYPIEKFISLLKTAKMTVKLTIHA
Output: 0.017

Input: GET /values?readout=A405&item= GST fusion of MMSC2 PDZ domain 8 (P8) (other, GST placed N-terminal as in pGEX vectors; also called PDZ domain number 8; not shown: glutathione S-transferase (GST) encoded by pGEX vectors (Pharmacia)) HMIELEKGHSGLGLSLAGNKDRSRMSVFIVGIDPNGAAGKDGRLQIADELLEINGQILYGRSHQNASSIIKCAPSKVKIIFIR
Output: 0.006

Input: GET /values?readout=A405&item= GST fusion of MMSC2 PDZ domain 4 (P10) (other, GST placed N-terminal as in pGEX vectors; also called PDZ domain number 4; not shown: glutathione S-transferase (GST) encoded by pGEX vectors (Pharmacia)) HVSKFSENSGLGISLEATVGHHFIRSVLPEGPVGHSGKLFSGDELLEVNGITLLGENHQDVVNILKELPIEVTMVCCR
Output: 0.024

Input: GET /values?readout=A405&item= GST fusion of MMSC2 PDZ domain 6 (P11) (other, GST placed N-terminal as in pGEX vectors; also called PDZ domain number 6; not shown: glutathione S-transferase (GST) encoded by pGEX vectors (Pharmacia)) RTINIAKGNSSLGMTVSANKDGLGMIVRSIIHGGAISRDGRIAIGDCILSINEESTISVTNAQARAMLRRHSLIGPDIKITYVP
Output: 0.016
